These entries and their values trace back to ChEMBL document CHEMBL4196062.

# targetEntity: Trypanothione reductase (Leishmania infantum) (UniProt A4HSF7)
# Sequence (A4HSF7 as listed by the source): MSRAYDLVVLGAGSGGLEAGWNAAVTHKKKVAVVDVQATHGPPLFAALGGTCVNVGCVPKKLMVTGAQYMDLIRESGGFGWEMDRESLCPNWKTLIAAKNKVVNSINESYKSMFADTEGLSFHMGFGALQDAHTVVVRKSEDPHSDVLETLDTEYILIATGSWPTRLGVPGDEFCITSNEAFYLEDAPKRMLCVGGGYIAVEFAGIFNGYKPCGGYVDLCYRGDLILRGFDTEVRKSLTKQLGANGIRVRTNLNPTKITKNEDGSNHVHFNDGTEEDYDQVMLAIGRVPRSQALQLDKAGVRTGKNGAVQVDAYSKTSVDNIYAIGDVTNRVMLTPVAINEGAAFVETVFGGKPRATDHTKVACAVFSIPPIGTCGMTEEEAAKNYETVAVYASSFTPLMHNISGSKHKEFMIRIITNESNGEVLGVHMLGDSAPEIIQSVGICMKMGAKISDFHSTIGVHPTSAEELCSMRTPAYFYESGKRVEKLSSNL
# protocolDetails: Inhibition of dimerization of HIS/FLAG tagged Leishmania infantum trypanothione reductase assessed as dimer levels at 75 uM incubated for 16 hrs by ELISA
# Design: scale not given: the % may be the effect or the level left
Non-standard residues stand in square brackets, D forms with d. Residues, ends and D or L forms follow the SMILES beside them. R5 = C=CCCC[C@@](C)(N)C(=O)O
Here the recorded Activity is given for each entry.
measure: Activity (%)

molecule	targetEntity	valueMeasured
CCCC[C@@H](NC(=O)[C@H](CC(C)C)NC(=O)[C@@H](CCCC)NC(=O)[C@H](CO)NC(=O)[C@@H](NC(=O)CNC(=O)C1(C)CCCC=CCCC[C@@](C)(NC(=O)[C@@H](NC(=O)[C@H](CC(C)C)NC(=O)[C@@H]2CCCN2C(C)=O)[C@@H](C)CC)C(=O)N[C@@H](CCC(N)=O)C(=O)N[C@@H](CO)C(=O)N[C@@H](C(C)C)C(=O)N1)[C@@H](C)CC)C(N)=O (some centres undefined)	Trypanothione reductase (Leishmania infantum) (UniProt A4HSF7)	168
C=CCCC[C@@](C)(NC(=O)[C@@H](NC(=O)[C@H](CO)NC(=O)[C@H](CCC(N)=O)NC(=O)[C@@](C)(CCCC=C)NC(=O)[C@@H](NC(=O)[C@H](CCCCN)NC(=O)[C@@H]1CCCN1C(C)=O)[C@@H](C)CC)C(C)C)C(=O)N[C@H](C(=O)N[C@@H](CO)C(=O)NCC(=O)N[C@@H](CCCCN)C(=O)NCC(N)=O)[C@@H](C)CC (Ac-PKI[R5]QSV[R5]ISGKG-NH2)	Trypanothione reductase (Leishmania infantum) (UniProt A4HSF7)	184
CCCC[C@H](NC(=O)[C@H](CC(C)C)NC(=O)[C@H](CCCC)NC(=O)[C@H](CO)NC(=O)[C@@H](NC(=O)CNC(=O)[C@]1(C)CCCC=CCCC[C@@](C)(NC(=O)[C@H](CC(C)C)NC(=O)[C@@H]2CCCN2C(C)=O)C(=O)N[C@@H]([C@@H](C)CC)C(=O)N[C@@H](CCC(N)=O)C(=O)N[C@@H](CO)C(=O)N1)[C@@H](C)CC)C(N)=O (stereo in doubt; 2a)	Trypanothione reductase (Leishmania infantum) (UniProt A4HSF7)	181
CCCC[C@@H](NC(=O)[C@H](CC(C)C)NC(=O)[C@@H](CCCC)NC(=O)[C@H](CO)NC(=O)[C@@H](NC(=O)CNC(=O)[C@@H](NC(=O)[C@H](CO)NC(=O)[C@H](CCC(N)=O)NC(=O)[C@@H](NC(=O)[C@@H](NC(=O)[C@H](CC(C)C)NC(=O)[C@@H]1CCCN1C(C)=O)[C@@H](C)CC)[C@@H](C)CC)C(C)C)[C@@H](C)CC)C(N)=O	Trypanothione reductase (Leishmania infantum) (UniProt A4HSF7)	2
